Assay: in vitro
Conditions: rat, not told, Surrogate activity-based Plasma stability t½
Where a SMILES comes first, the peptide text is derived from it. Bridges are numbered along the chain shown (N, C = ends). [ ]: non-standard residue; d: D form. The star is where a group is joined. pGlu = O=C1CC[C@@H](C(=O)O)N1; Lauroyl = CCCCCCCCCCCC(=O)*; Nle = CCCC[C@H](N)C(=O)O
// values below are reported half-life

CCCCCCCCCCCC(=O)NCCCC[C@@H]1NC(=O)[C@@H](NC(=O)[C@H](CC(C)C)NC(=O)[C@H](CCCNC(=N)N)NC(=O)[C@@H]2CCCN2C(=O)[C@H](CCCNC(=N)N)NC(=O)[C@@H]2CCC(=O)N2)CSSC[C@@H](C(=O)N[C@@H](Cc2ccccc2)C(=O)O)NC(=O)[C@H](CCCC)NC(=O)[C@@H]2CCCN2C(=O)CNC(=O)[C@H](CCCCN)NC1=O [Example 27, pE-R-P-R-L-C-K(Lauroyl)-K-G-P-Nle-C-F-OH] ([pGlu]RPRLCK(Lauroyl)KGP[Nle]CF-OH; disulfide 6-12) : > 16.7 h

Next compound, please.
Problem: Consider the compound CCCC[C@@H]1NC(=O)[C@@H]2CCCN2C(=O)CNC(=O)[C@H](CCCCN)NC(=O)[C@H](Cc2c[nH]cn2)NC(=O)[C@@H](NC(=O)[C@H](CC(C)C)NC(=O)[C@H](CCC(=O)O)NC(=O)[C@@H]2CCCN2C(=O)[C@H](CCCNC(=N)N)NC(=O)[C@@H]2CCC(=O)N2)CSSC[C@@H](C(=O)N[C@@H](Cc2ccccc2)C(=O)O)NC1=O [Example 40, pE-R-P-E-L-C-H-K-G-P-Nle-C-F-OH] ([pGlu]RPELCHKGP[Nle]CF-OH; disulfide 6-12) and give its recorded half-life.
Result: > 16.7 h

====

Experiment: in vitro
Conditions: rat, not told, Surrogate activity-based Plasma stability t½
Where a SMILES comes first, the peptide text is derived from it. Bridges are numbered along the chain shown (N, C = ends). [ ]: non-standard residue; d: D form. The star is where a group is joined. Palmitoyl = CCCCCCCCCCCCCCCC(=O)*; Cha = N[C@@H](CC1CCCCC1)C(=O)O; pGlu = O=C1CC[C@@H](C(=O)O)N1; NHPhenethyl = c1ccc(CCN*)cc1; hCys = N[C@@H](CCS)C(=O)O; Nle = CCCC[C@H](N)C(=O)O; Orn = NCCC[C@H](N)C(=O)O; AEEA = NCCOCCOCC(=O)O
Property: half-life; scope: individual compounds

CCCC[C@@H]1NC(=O)[C@@H]2CCCN2C(=O)CNC(=O)[C@H](CCCCN)NC(=O)[C@H](Cc2c[nH]cn2)NC(=O)[C@@H](NC(=O)[C@H](CC(C)C)NC(=O)[C@H](CCCNC(=N)N)NC(=O)[C@@H]2CCCN2C(=O)[C@H](CCCNC(=N)N)NC(=O)[C@@H]2CCC(=O)N2)CSSCC[C@@H](C(=O)N[C@@H](Cc2ccccc2)C(=O)O)NC1=O [Example 51, pE-R-P-R-L-C-H-K-G-P-Nle-hC-F-OH] ([pGlu]RPRLCHKGP[Nle][hCys]F-OH; disulfide 6-12) : 10.9 h
CCCC[C@@H]1NC(=O)[C@@H]2CCCN2C(=O)CNC(=O)[C@H](CCCCN)NC(=O)[C@H](Cc2c[nH]cn2)NC(=O)[C@@H](NC(=O)[C@H](CC(C)C)NC(=O)[C@H](CCCNC(=N)N)NC(=O)[C@@H]2CCCN2C(=O)[C@H](CCCNC(=N)N)NC(=O)[C@@H]2CCC(=O)N2)CCSSCC[C@@H](C(=O)N[C@@H](Cc2ccccc2)C(=O)O)NC1=O [Example 52, pE-R-P-R-L-hC-H-K-G-P-Nle-hC-F-OH] ([pGlu]RPRL[hCys]HKGP[Nle][hCys]F-OH; disulfide 6-12) : 13 h
CCCC[C@@H]1NC(=O)[C@@H]2CCCN2C(=O)CNC(=O)[C@H](CCCCN)NC(=O)[C@H](Cc2c[nH]cn2)NC(=O)[C@@H](NC(=O)[C@H](CC(C)C)NC(=O)[C@H](CCCNC(=N)N)NC(=O)[C@H]2CCCN2C(=O)[C@H](CCCNC(=N)N)NC(=O)[C@@H]2CCC(=O)N2)CSSC[C@@H](C(=O)N[C@@H](Cc2ccccc2)C(=O)O)NC1=O [Example 33, pE-R-p-R-L-C-H-K-G-P-Nle-C-F-OH] ([pGlu]R[dP]RLCHKGP[Nle]CF-OH; disulfide 6-12) : > 16.7 h
CCCC[C@@H]1NC(=O)[C@@H]2CCCN2C(=O)CNC(=O)[C@H](CCCCN)NC(=O)[C@H](Cc2c[nH]cn2)NC(=O)[C@@H](NC(=O)[C@H](CC(C)C)NC(=O)[C@H](CCCNC(=N)N)NC(=O)[C@@H]2CCCN2C(=O)[C@H](Cc2ccccc2)NC(=O)[C@@H]2CCC(=O)N2)CSSC[C@@H](C(=O)N[C@@H](Cc2ccccc2)C(=O)O)NC1=O [Example 31, pE-F-P-R-L-C-H-K-G-P-Nle-C-F-OH] ([pGlu]FPRLCHKGP[Nle]CF-OH; disulfide 6-12) : > 16.7 h
CCCC[C@@H]1NC(=O)[C@@H]2CCCN2C(=O)CNC(=O)[C@H](Cc2ccccc2)NC(=O)[C@H](Cc2c[nH]cn2)NC(=O)[C@@H](NC(=O)[C@H](CC(C)C)NC(=O)[C@H](CCCNC(=N)N)NC(=O)[C@@H]2CCCN2C(=O)[C@H](CCCNC(=N)N)NC(=O)[C@@H]2CCC(=O)N2)CCCNC(=O)C[C@@H](C(=O)NCCc2ccccc2)NC1=O [Example 3] ([pGlu]RPRL[Orn]HFGP[Nle]D-NHPhenethyl; lactam 6-12) : 1.63 h
CCCC[C@@H]1NC(=O)[C@@H]2CCCN2C(=O)CNC(=O)[C@H](CCCCN)NC(=O)[C@H](Cc2c[nH]cn2)NC(=O)[C@@H](NC(=O)[C@H](CC(C)C)NC(=O)[C@H](CCCNC(=N)N)NC(=O)[C@@H]2CCCN2C(=O)[C@H](CCC(=O)O)NC(=O)[C@@H]2CCC(=O)N2)CSSC[C@@H](C(=O)N[C@@H](Cc2ccccc2)C(=O)O)NC1=O [Example 32, pE-E-P-R-L-C-H-K-G-P-Nle-C-F-OH] ([pGlu]EPRLCHKGP[Nle]CF-OH; disulfide 6-12) : > 16.7 h

Problem: Respond only with half-life recorded for CCCCCCCCCCCCCCCC(=O)NCCOCCOCC(=O)N[C@@H](CCC(N)=O)C(=O)N[C@@H](CCCNC(=N)N)C(=O)N1CCC[C@H]1C(=O)N[C@@H](CCCNC(=N)N)C(=O)N[C@@H](CC(C)C)C(=O)N[C@H]1CSSC[C@@H](C(=O)N[C@@H](Cc2ccccc2)C(=O)O)NC(=O)[C@H](CCCC)NC(=O)[C@@H]2CCCN2C(=O)CNC(=O)[C@H](CCCCN)NC(=O)[C@H](Cc2c[nH]cn2)NC1=O [Example 24] ({Palmitoyl-AEEA}-QRPRLCHKGP[Nle]CF-OH; disulfide 6-12)
Result: 5.06 h

Problem: Report half-life for N=C(N)NCCC[C@H](NC(=O)[C@@H]1CCCN1C(=O)[C@H](CCCNC(=N)N)NC(=O)[C@@H]1CCC(=O)N1)C(=O)N[C@@H](CC1CCCCC1)C(=O)N[C@H]1CSSC[C@@H](C(=O)N[C@@H](Cc2ccccc2)C(=O)O)NC(=O)[C@H](CC2CCCCC2)NC(=O)[C@@H]2CCCN2C(=O)CNC(=O)[C@H](CCCCN)NC(=O)[C@H](Cc2c[nH]cn2)NC1=O [Example 14, pE-R-P-R-Cha-C-H-K-G-P-Cha-C-F-OH] ([pGlu]RPR[Cha]CHKGP[Cha]CF-OH; disulfide 6-12)
Result: 1.42 h

Problem: Using the record for CCCC[C@@H]1NC(=O)[C@@H]2CCCN2C(=O)CNC(=O)[C@H](CCCCN)NC(=O)[C@H](Cc2c[nH]cn2)NC(=O)[C@@H](NC(=O)[C@H](CC(C)C)NC(=O)[C@H](CCCNC(=N)N)NC(=O)[C@H](CC(=O)O)NC(=O)[C@H](CCCNC(=N)N)NC(=O)[C@@H]2CCC(=O)N2)CSSC[C@@H](C(=O)N[C@@H](Cc2ccccc2)C(=O)O)NC1=O [Example 35, pE-R-D-R-L-C-H-K-G-P-Nle-C-F-OH] ([pGlu]RDRLCHKGP[Nle]CF-OH; disulfide 6-12) , state its measured half-life.
Result: > 16.7 h

====

Experiment: Plasma Stability Assay (LC-MS)
Format: in vitro ADME
Conditions: male, Sprague-Dawley, heparinized rat plasma, 37° C., Table 3, read-out: Plasma stability t½
Where a SMILES comes first, the peptide text is derived from it. Bridges are numbered along the chain shown (N, C = ends). [ ]: non-standard residue; d: D form. pGlu = O=C1CC[C@@H](C(=O)O)N1; Nle = CCCC[C@H](N)C(=O)O
reported.property: half-life at 5000 ng/mL (h)
Respond numerically; units are h and should not be typed.

Problem: Please supply the value of reported half-life at 5000 ng/mL for the item CCCC[C@@H]1NC(=O)[C@@H]2CCCN2C(=O)CNC(=O)[C@H](CCCCN)NC(=O)[C@H](Cc2c[nH]cn2)NC(=O)[C@@H](NC(=O)[C@H](CC(C)C)NC(=O)[C@H](CCCNC(=N)N)NC(=O)[C@@H]2CCCN2C(=O)[C@H](CCCNC(=N)N)NC(=O)[C@@H]2CCC(=O)N2)CSSC[C@@H](C(=O)N[C@H](Cc2ccccc2)C(=O)O)NC1=O [Example 13, pE-R-P-R-L-C-H-K-G-P-Nle-C-f-OH] ([pGlu]RPRLCHKGP[Nle]C[dF]-OH; disulfide 6-12)
Result: 3.05
